- experiment summary: Plasma pharmacokinetics of SHR9146 in mice (LC-MS/MS, non-compartmental analysis)
- Format: in vivo, ICR mice
- applied conditions: both sexes, ICR, mouse, plasma, po, 20 mg/kg, 20 mg/kg i.g. single dose; all mice (Totol, 3 male + 3 female); plasma; read-out: AUC0-t
result type: AUC(0-t) (ng·h/mL)
Give bare numbers, in ng·h/mL.

Report AUC(0-t) for OCCn1cc(-c2ccc(N3CCC([C@H]4c5c(F)cccc5-c5cncn54)CC3)cc2)cn1 please.
15600

---

- experiment summary: Tissue distribution of SHR9146 in mice after oral gavage of 40 mg/kg
- Format: in vivo, ICR mice
- applied conditions: male, ICR, mouse, bladder, po, 40 mg/kg, male, 6 h, 40 mg/kg oral gavage, Mean (n=3); read-out: SHR9146 concentration in Bladder
- Protocol: ICR mice with body weight 16–26 g were supplied by Shanghai Lingchang Biotechnology Co., Ltd. (animal breeding license number SCXK (Shanghai) 2013-0018) and housed at Shanghai Institute of Materia Medica, Chinese Academy of Sciences [animal use license number SYXK (Shanghai) 2015-0027]. The mice used in this study were fasted overnight for 12 h but had free access to water. Food was supplied 4 h post-dose. […]
result type: concentration at 6 h (ng/g)
One number for each entry, in ng/g.

Report concentration at 6 h for OCCn1cc(-c2ccc(N3CCC([C@H]4c5c(F)cccc5-c5cncn54)CC3)cc2)cn1 please.
163

---

- experiment summary: Tissue distribution of SHR9146 in mice after oral gavage of 40 mg/kg
- Type: in vivo, ICR mice
- applied conditions: male, ICR, mouse, lung, po, 40 mg/kg, male, 1 h, 40 mg/kg oral gavage, Mean (n=3); read-out: SHR9146 concentration in Lung
result type: concentration at 1 h (ng/g)
Numbers only, in ng/g.

Report concentration at 1 h for OCCn1cc(-c2ccc(N3CCC([C@H]4c5c(F)cccc5-c5cncn54)CC3)cc2)cn1 please.
12500

---

- experiment summary: Plasma pharmacokinetics of SHR9146 in mice (LC-MS/MS, non-compartmental analysis)
- Assay type: in vivo, ICR mice
- applied conditions: both sexes, ICR, mouse, plasma, po, after oral dosing from 20 to 80 mg/kg; mouse plasma; read-out: AUC0-t, range over oral doses
- Method: ICR mice with body weight 16–26 g were supplied by Shanghai Lingchang Biotechnology Co., Ltd. (animal breeding license number SCXK (Shanghai) 2013-0018) and housed at Shanghai Institute of Materia Medica, Chinese Academy of Sciences [animal use license number SYXK (Shanghai) 2015-0027]. The mice used in this study were fasted overnight for 12 h but had free access to water. Food was supplied 4 h post-dose. […]
result type: AUC(0-t)

Report AUC(0-t) for OCCn1cc(-c2ccc(N3CCC([C@H]4c5c(F)cccc5-c5cncn54)CC3)cc2)cn1 please.
15600 to 70000 ng·h/mL

---

- experiment summary: Tissue distribution of SHR9146 in mice after oral gavage of 40 mg/kg
- Assay type: in vivo, ICR mice
- applied conditions: male, ICR, mouse, brain, po, 40 mg/kg, male, 3 h, 40 mg/kg oral gavage, Mean (n=3); read-out: SHR9146 concentration in Brain
result type: concentration at 3 h (ng/g)
One number for each entry, in ng/g.

Report concentration at 3 h for OCCn1cc(-c2ccc(N3CCC([C@H]4c5c(F)cccc5-c5cncn54)CC3)cc2)cn1 please.
666

---

- experiment summary: Tissue distribution of SHR9146 in mice after oral gavage of 40 mg/kg
- Type: in vivo, ICR mice
- applied conditions: female, ICR, mouse, adrenal gland, po, 40 mg/kg, female, 24 h, 40 mg/kg oral gavage, Mean (n=3); read-out: SHR9146 concentration in Adrenal gland
- Method: ICR mice with body weight 16–26 g were supplied by Shanghai Lingchang Biotechnology Co., Ltd. (animal breeding license number SCXK (Shanghai) 2013-0018) and housed at Shanghai Institute of Materia Medica, Chinese Academy of Sciences [animal use license number SYXK (Shanghai) 2015-0027]. The mice used in this study were fasted overnight for 12 h but had free access to water. Food was supplied 4 h post-dose. […]
result type: concentration at 24 h (ng/g)
Give bare numbers, in ng/g.

Report concentration at 24 h for OCCn1cc(-c2ccc(N3CCC([C@H]4c5c(F)cccc5-c5cncn54)CC3)cc2)cn1 [SHR9146] please.
195

---

- experiment summary: Tissue distribution of SHR9146 in mice after oral gavage of 40 mg/kg
- Type: in vivo, ICR mice
- applied conditions: female, ICR, mouse, heart, po, 40 mg/kg, female, 1 h, 40 mg/kg oral gavage, individual mice; read-out: SHR9146 concentration in Heart
result type: concentration at 1 h (ng/g)
Answers are plain numbers, in ng/g.

Report concentration at 1 h for OCCn1cc(-c2ccc(N3CCC([C@H]4c5c(F)cccc5-c5cncn54)CC3)cc2)cn1 please.
7410

---

- experiment summary: Tissue distribution of SHR9146 in mice after oral gavage of 40 mg/kg
- Format: in vivo, ICR mice
- applied conditions: male, ICR, mouse, bladder, po, 40 mg/kg, male, 1 h, 40 mg/kg oral gavage, individual mice; read-out: SHR9146 concentration in Bladder
- Protocol: ICR mice with body weight 16–26 g were supplied by Shanghai Lingchang Biotechnology Co., Ltd. (animal breeding license number SCXK (Shanghai) 2013-0018) and housed at Shanghai Institute of Materia Medica, Chinese Academy of Sciences [animal use license number SYXK (Shanghai) 2015-0027]. The mice used in this study were fasted overnight for 12 h but had free access to water. Food was supplied 4 h post-dose. […]
result type: concentration at 1 h (ng/g)
One number for each entry, in ng/g.

Report concentration at 1 h for OCCn1cc(-c2ccc(N3CCC([C@H]4c5c(F)cccc5-c5cncn54)CC3)cc2)cn1 [SHR9146] please.
12500

---

- experiment summary: Plasma pharmacokinetics of SHR9146 in mice (LC-MS/MS, non-compartmental analysis)
- Assay type: in vivo, ICR mice
- applied conditions: female, ICR, mouse, plasma, po, 20 mg/kg, 20 mg/kg i.g. bid, 7 days (7th-day steady state); female mice
result type: AUC(0-inf) (ng·h/mL)
Answers are plain numbers, in ng·h/mL.

Report AUC(0-inf) for OCCn1cc(-c2ccc(N3CCC([C@H]4c5c(F)cccc5-c5cncn54)CC3)cc2)cn1 please.
24300

---

- experiment summary: Plasma pharmacokinetics of SHR9146 in mice (LC-MS/MS, non-compartmental analysis)
- Assay type: in vivo, ICR mice
- applied conditions: both sexes, ICR, mouse, plasma, po, 40 mg/kg, 40 mg/kg i.g. single dose; all mice (Totol, 3 male + 3 female); plasma; read-out: Tmax
result type: Tmax (h)
Answers are plain numbers, in h.

Report Tmax for OCCn1cc(-c2ccc(N3CCC([C@H]4c5c(F)cccc5-c5cncn54)CC3)cc2)cn1 please.
1.58

---

- experiment summary: Tissue distribution of SHR9146 in mice after oral gavage of 40 mg/kg
- Format: in vivo, ICR mice
- applied conditions: male, ICR, mouse, lung, po, 40 mg/kg, male, 1 h, 40 mg/kg oral gavage, individual mice; read-out: SHR9146 concentration in Lung
result type: concentration at 1 h (ng/g)
Numbers only, in ng/g.

Report concentration at 1 h for OCCn1cc(-c2ccc(N3CCC([C@H]4c5c(F)cccc5-c5cncn54)CC3)cc2)cn1 please.
13100

---

- experiment summary: Tissue distribution of SHR9146 in mice after oral gavage of 40 mg/kg
- Format: in vivo, ICR mice
- applied conditions: female, ICR, mouse, abdominal fat, po, 40 mg/kg, female, 1 h, 40 mg/kg oral gavage, individual mice; read-out: SHR9146 concentration in Abdominal fat
result type: concentration at 1 h (ng/g)
Give bare numbers, in ng/g.

Report concentration at 1 h for OCCn1cc(-c2ccc(N3CCC([C@H]4c5c(F)cccc5-c5cncn54)CC3)cc2)cn1 please.
11600

---

- experiment summary: Plasma pharmacokinetics of SHR9146 in mice (LC-MS/MS, non-compartmental analysis)
- Format: in vivo, ICR mice
- applied conditions: both sexes, ICR, mouse, plasma, oral, 40 mg/kg, 40 mg/kg i.g. single; 8 h; read-out: plasma drug concentration, individual mice #1-#6
result type: concentration at 8 h (ng/mL)
Numbers only, in ng/mL.

Report concentration at 8 h for OCCn1cc(-c2ccc(N3CCC([C@H]4c5c(F)cccc5-c5cncn54)CC3)cc2)cn1 please.
582

---

- experiment summary: Plasma pharmacokinetics of SHR9146 in mice (LC-MS/MS, non-compartmental analysis)
- Format: in vivo, ICR mice
- applied conditions: female, ICR, mouse, plasma, po, 20 mg/kg, 20 mg/kg i.g. single dose; female mice; plasma; read-out: AUC0-t
- Protocol: ICR mice with body weight 16–26 g were supplied by Shanghai Lingchang Biotechnology Co., Ltd. (animal breeding license number SCXK (Shanghai) 2013-0018) and housed at Shanghai Institute of Materia Medica, Chinese Academy of Sciences [animal use license number SYXK (Shanghai) 2015-0027]. The mice used in this study were fasted overnight for 12 h but had free access to water. Food was supplied 4 h post-dose. […]
result type: AUC(0-t) (ng·h/mL)
One number for each entry, in ng·h/mL.

Report AUC(0-t) for OCCn1cc(-c2ccc(N3CCC([C@H]4c5c(F)cccc5-c5cncn54)CC3)cc2)cn1 [SHR9146] please.
16800

Where these numbers come from: paper PMC10410440
